Molecular target: T1, EBV minimal peptide PPSTSSKLRPRWTFT (spotted for dot blot) (Human herpesvirus 4 (Epstein-Barr …))
T1 construct: also called EBV gp350 minimal peptide; 72153; source: "recombinant peptide" spotted on nitrocellulose
T1 chain: PPSTSSKLRPRWTFT
Assay: far-Western, overlay or dot blot
Settings: one partner purified

BINDER	binding result
EBV_c124 (antibody, V domains shown, recombinant human IgG) VH: QVQLVQSGAEVRKPGASVKVSCKASGYTFNTYFIQWVRQAPGQGLEWMGVINSSGSGTRYAPKFRGRVILTRDTSTSTAFMELSSLTSEDTAVYYCARAAEGDYGDSALDYWGQGTLVSVSS VL: SYELTQPHSVSVSPGQTASIACSGEKLDKKYTCWYQQRPGQSPVLVIYQDRKRPSGIPERFSGSNSGNTATLTISGTQAIDEADYYCQVWDSNTVVFGGGTKLTVL	binds
EBV_c10 (antibody, V domains shown, recombinant human IgG) VH: QVHLVQSGAEVKKPGASVKVSCQASGFAFTTYDINWVRQAAGHGLEWMGWMNPNSGNRGYAQKFQGRVTMTRNTSITTAYMELTSLTPDDTAVYYCARAFCNSNRCSPELFDPWGQGTQVTVSS VL: QSVLTQPPSVSAAPGQMVTISCSGGSSNIGNNFVSWYQQIPGTVPKYVIYDNDKRPSGIPERFSGSRSGTSATLVITGLQTGDEADYYCATWDNSLRGVVFGGGTKLTVL	binds
EBV_c83 (antibody, V domains shown, recombinant human IgG) VH: QEQLVQSGTAVKKPGASVKVSCKTSRDTFTIYYIHWVRQAPGQGLEWMGIINPSGGNTSHAQKFQGRVTMTSDASTSTVYMELSSLRFEDTATYYCARVGYNWGSHSVSSPGAMDVWGQGTTVSVSS VL: SIELTQPSSVSVSPGQTATITCSGDVLPKQYAYWYQQKPGRAPMLVVYKDSERPSGISERFSGSSAGTAVTLTISAVQAEDEADYYCQSADTGGTYVIFGGGTKLTVL	binds
